# method: Blood concentrations after oral administration of Crude extract I to rats
# Type: in vivo, rat
# conditionInfo: male, Crj:CD(SD) IGS, rat, in vivo, po, blood concentration
reportedProperty: concentration at 1 h (ng/mL)
Just the number please, in ng/mL, no unit attached.

Short answer for CC[C@@]12CC(C(=O)OC)=C3Nc4cc5c(cc4[C@@]34CCN(C[C@H]3O[C@H]31)[C@@H]24)[C@@H]1[C@H](O5)[C@@H](O)[C@@]2(CC)CC(C(=O)OC)=C3Nc4c(cc(O)c(OC)c4OC)[C@@]34CCN1[C@@H]24 : concentration at 1 h was 270

* * *

# method: Blood concentrations after oral administration of Crude extract I to rats
# Assay type: in vivo, rat
# conditionInfo: male, Crj:CD(SD) IGS, rat, in vivo, po, blood concentration
# Experimental: One drop of Tween 80 was added to the crude extract (0.05 g) obtained in Example 1, which was suspended in 5-ml of water for injection. […] Then, the concentrations of conophylline and conophyllidine in the blood were measured (Table 7) by the same method as in Example 8. As the control, water for injection containing one drop of Tween80 was administered orally at a dose of 5 ml/kg body weight (n=2) and the blood concentrations were measured in the same manner.
reportedProperty: concentration at 0.5 h (ng/mL)
The response must be a number in ng/mL with no trailing unit.

Entry CC[C@@]12CC(C(=O)OC)=C3Nc4cc5c(cc4[C@@]34CCN(C[C@H]3O[C@H]31)[C@@H]24)[C@@H]1[C@H](O5)[C@@H](O)[C@@]2(CC)CC(C(=O)OC)=C3Nc4c(cc(O)c(OC)c4OC)[C@@]34CCN1[C@@H]24 ; concentration at 0.5 h = 332

* * *

# method: Blood concentrations after oral administration of acetic acid extract or dried pulverized leaves to healthy rats
# Type: in vivo, rat
# conditionInfo: male, Crj:CD (SD) IGS, rat, in vivo, po, 0.5 g/kg, Dried pulverized leaves oral, healthy rats (animals 3, 4), 24 h
# Method: Dried leaves of Tabernaemontana divaricata were pulverized with a home mill, 1 g of the pulverized product was homogenized in 20 ml of 0.3 M acetic acid solution, and the active ingredient was extracted by stirring at 50° C. for 30 min. The supernatant was recovered by centrifugation and concentrated to dryness to obtain 0.3 g of powder (acetic acid extract). This powder contained conophylline and conophyllidine at 1.0 mg/g and 0.8 mg/g, respectively. […]
reportedProperty: concentration at 24 h
Write down the value, and be sure its unit follows.

Lab note: CC[C@@]12C=CCN3CC[C@]4(C(=C(C(=O)OC)C1)Nc1cc5c(cc14)[C@H]1[C@@H](O5)[C@H](O)[C@]4(CC)CC(C(=O)OC)=C5Nc6c(cc(O)c(OC)c6OC)[C@@]56CCN1[C@H]46)[C@H]32 (stereo in doubt) gave concentration at 24 h of 1 ng/mL

* * *

# method: Blood concentrations after oral administration of Crude extract I to rats
# Type: in vivo, rat
# conditionInfo: male, Crj:CD(SD) IGS, rat, in vivo, po, 0.05 g/kg, Crude extract I oral, rats (animals 3, 4), 8 h
reportedProperty: concentration at 8 h

concentration at 8 h for CC[C@@]12C=CCN3CC[C@]4(C(=C(C(=O)OC)C1)Nc1cc5c(cc14)[C@H]1[C@@H](O5)[C@H](O)[C@]4(CC)CC(C(=O)OC)=C5Nc6c(cc(O)c(OC)c6OC)[C@@]56CCN1[C@H]46)[C@H]32 (stereo in doubt) [Conophyllidine, conophyllidine] is 24 ng/mL

* * *

# method: Blood concentrations after oral administration of Crude extract I to rats
# Assay type: in vivo, rat
# conditionInfo: male, Crj:CD(SD) IGS, rat, in vivo, po, 0.05 g/kg, Crude extract I oral, rats (animals 3, 4), 4 h
reportedProperty: concentration at 4 h

Item: CC[C@@]12C=CCN3CC[C@]4(C(=C(C(=O)OC)C1)Nc1cc5c(cc14)[C@H]1[C@@H](O5)[C@H](O)[C@]4(CC)CC(C(=O)OC)=C5Nc6c(cc(O)c(OC)c6OC)[C@@]56CCN1[C@H]46)[C@H]32 (stereo in doubt) | concentration at 4 h: 36 ng/mL

* * *

# method: Blood concentrations after oral administration of Crude extract I to rats
# Format: in vivo, rat
# conditionInfo: male, Crj:CD(SD) IGS, rat, in vivo, po, 0.05 g/kg, Crude extract I oral, rats (animals 3, 4), 24 h; read-out: blood concentration
reportedProperty: concentration at 24 h (ng/mL)
Hi! Could you send only the number? It should be in ng/mL, unit omitted.

GET /value?item= CC[C@@]12C=CCN3CC[C@]4(C(=C(C(=O)OC)C1)Nc1cc5c(cc14)[C@H]1[C@@H](O5)[C@H](O)[C@]4(CC)CC(C(=O)OC)=C5Nc6c(cc(O)c(OC)c6OC)[C@@]56CCN1[C@H]46)[C@H]32 (stereo in doubt) &field=concentration at 24 h returns 13

* * *

# method: Blood concentrations after oral administration of Crude extract I to rats
# Format: in vivo, rat
# conditionInfo: male, Crj:CD(SD) IGS, rat, in vivo, po, 0.05 g/kg, Crude extract I oral, rats (animals 3, 4), 0.5 h; read-out: blood concentration
reportedProperty: concentration at 0.5 h

CC[C@@]12C=CCN3CC[C@]4(C(=C(C(=O)OC)C1)Nc1cc5c(cc14)[C@H]1[C@@H](O5)[C@H](O)[C@]4(CC)CC(C(=O)OC)=C5Nc6c(cc(O)c(OC)c6OC)[C@@]56CCN1[C@H]46)[C@H]32 (stereo in doubt) has a reported concentration at 0.5 h of 0.054 µg/mL
